System: IGROV1 ovarian
Assay Protocol: NCI tumour cell line growth inhibition, 48 h
Metric Name: TGI

Answered examples (2):
# Molecule, Metric Name, Readout Value
data = [
    ("Cc1nn(C(=O)Cc2ccccc2)c2c1C(c1ccccc1O)SC(N)=N2 (stereo not drawn)", "TGI", "> 100 µM"),
    ("OC[C@@H](O)[C@H]1NC[C@@H](O)[C@H]1O", "TGI", "> 100 µM"),
]

Turning to the following molecule.
// query Could you share which TGI value was measured for COP(=O)(O)/C=C/C(NC(=O)C(Cl)(Cl)Cl)c1ccccc1 (stereo not drawn) ?
// result > 100 µM

----------
# TGI per record follows
Test system: MALME-3M melanoma
Assay Protocol: NCI tumour cell line growth inhibition, 48 h

Answered examples (5):
# Compound, Readout Value
data = [
    ("COc1nc(NC2OCC(OC(C)=O)C(OC(C)=O)C2OC(C)=O)c(N=CC=Nc2c(NC3OCC(OC(C)=O)C(OC(C)=O)C3OC(C)=O)nc(OC)n(C)c2=O)c(=O)n1C (configuration not stated)", "> 100 µM"),
    ("CNC(=O)c1cncc(/C=C/c2ccccc2C)c1", "> 25 µM"),
    ("Cc1cccc(NC(=O)CC(=O)N2N=C(N(CCC#N)c3ccc(Cl)cc3)CC2c2ccccc2)c1 (configuration not stated)", "> 100 µM"),
    ("CC(C)(C)N=c1n(C(C)(C)C)oc(=O)n1C(C)(C)C", "> 100 µM"),
    ("C=C1[C@@H](O)C[C@@]23CC[C@@H]4[C@@]5(C)CC[C@@H](OC(C)=O)C(C)(C)[C@@H]5C[C@@H](OC5OC(COC(C)=O)C(O)C(O)C5O)[C@@]4(C)C2=CC[C@H]3[C@H]1C (some centres not stated)", "23.9 µM"),
]

// query Look up TGI with MALME-3M melanoma for this compound: Cc1c(C(=O)/C=C/c2csc3ccccc23)[n+](=O)c2ccccc2n1[O-]
// result 8.06 µM

// query Another: COC(=O)c1ccccc1/C=C1/Cc2ccccc2C1=O
// result > 100 µM

----------
# TGI per record follows
System: SR leukemia
Assay Protocol: NCI tumour cell line growth inhibition, 48 h

# Compound, TGI
measured = [
    ("CC1(C)SC2C(NC(=O)C(N)c3ccccc3)C(=O)N2C1C(=O)O (stereo not given)", "> 100 µM"),
]

// query Could you share which TGI value was measured for O=C(Cn1ccc(=O)[nH]c1=O)Nc1ccc(C(=O)O)c(O)c1 ?
// result > 100 µM

// query Another: CN1CCN(CCc2cccc(C(=O)c3cnn(-c4ccc(F)cc4)c3N)c2)CC1
// result > 25 µM

// query Another: CC(=O)NS(=O)(=O)c1ccc(NC(=O)c2c3ccccc3nc3ccccc23)cc1
// result > 100 µM

// query Another: CC1(C)C(c2ccccc2)=[N+]([O-])C(C)(C)N1O
// result > 10 µM

----------
# TGI per record follows
System: IGROV1 ovarian
Assay Protocol: NCI tumour cell line growth inhibition, 48 h

# Molecule, Readout Value
data = [
    ("CCN(CC)CCn1ccc(=O)c2cc3c(=O)ccn(CCN(CC)CC)c3c(C)c21", "22 µM"),
    ("C/C(=C\\c1ccccc1)C(=O)CCN1CCOCC1", "> 61.9 µM"),
    ("O=C1c2ccccc2CN1c1ccc(O)cc1", "> 100 µM"),
    ("C=C1C(=O)O[C@H]2[C@H]1[C@H](OC(=O)/C(C)=C\\C)CC(=C)[C@@H]1[C@H](O)[C@H]3O[C@@]3(C)[C@@]12O", "> 100 µM"),
    ("Nc1c(C(=O)Nc2cccc([N+](=O)[O-])c2)sc2nc3c(cc12)C(O)CCC3 (configuration not stated)", "> 100 µM"),
]

// query Could you share which TGI value was measured for CCCCCCCCCC[C@H](O)[C@H]1CC[C@H]([C@H]2CC[C@H]([C@H](O)CC[C@H](O)CCCCCCC[C@@H](O)CC3=C[C@H](C)OC3=O)O2)O1 ?
// result > 100 µM

// query Another: COc1ccc(/C(=N/O)c2ccccc2-c2nc3ccccc3c(=O)n2-c2ccc(S(=O)(=O)Nc3ncccn3)cc2)cc1C
// result > 31.6 µM

----------
System: DU-145 prostate
Assay Protocol: NCI tumour cell line growth inhibition, 48 h
Metric Name: TGI

# Item Smiles, System Name, Metric Name, Readout Value
rows = [
    ("CCN(Cc1ccc(F)c(F)c1)c1ccc(CO)c(Cl)c1", "DU-145 prostate", "TGI", "38.2 µM"),
    ("CN1CCN(CCc2cccc(C(=O)c3cnn(-c4ccc(F)cc4)c3N)c2)CC1", "DU-145 prostate", "TGI", "> 25 µM"),
    ("CC(C)(C)C#CC1=C(Br)C(=O)OC1", "DU-145 prostate", "TGI", "3.31 µM"),
    ("O=C(c1ccc(F)cc1)c1cccc(C(=O)c2ccc(F)cc2)n1", "DU-145 prostate", "TGI", "> 100 µM"),
    ("CC(C)(C)NC(=O)[C@H]1CC[C@H]2[C@@H]3CC=C4NC(=O)CC[C@]4(C)[C@H]3CC[C@]12C", "DU-145 prostate", "TGI", "> 100 µM"),
]

// query Could you share which TGI value was measured for COC(=O)/C=C/C=C(c1ccccc1)c1ccccc1 ?
// result 52.8 µM

// query Another: O=c1cc(/C=C/c2ccc(O)c(O)c2)oc(/C=C/c2ccc(O)c(O)c2)c1
// result 12.8 µM

----------
System: SNB-19 CNS
Assay Protocol: NCI tumour cell line growth inhibition, 48 h
Metric Name: TGI

# Compound, System Name, TGI
measured = [
    ("O=C1/C(=C/c2ccccc2S)N=C(c2ccccc2)N1c1nc2ccc(Sc3ccccc3)cc2[nH]1", "SNB-19 CNS", "> 100 µM"),
    ("O=C1C(c2c(O)[nH]c3ccc(S(=O)(=O)O)cc23)=Nc2ccccc21", "SNB-19 CNS", "> 100 µM"),
    ("COc1cc(C2c3cc4c(cc3OC(NN=C(C)C)C2C)OCO4)cc(OC)c1O (stereo unspecified)", "SNB-19 CNS", "> 100 µM"),
    ("COc1cc(Cl)cc(-c2nn(C(=O)NCCN3CCOCC3)cc2-c2ccncc2)c1", "SNB-19 CNS", "> 100 µM"),
    ("COCOc1ccc(OC)cc1", "SNB-19 CNS", "> 100 µM"),
]

// query Could you share which TGI value was measured for CCCCCn1c(=N)n(CC(O)COc2cccc(C)c2)c2ccccc21 (stereo unspecified) ?
// result 26.4 µM

// query Another: CSC1CC2C(CC1(C)O)C2(C)C (stereo unspecified)
// result > 100 µM

// query Another: CN(C)c1nc(=NCc2ccncc2)ss1
// result > 100 µM

// query Another: COc1ccc2nc3cc([N+](=O)[O-])ccc3c(NCCCCCN(C)C)c2c1
// result 1.23 µM

// query Another: CCSC1=CC(=O)c2nc3ccccc3c3ccnc1c23
// result > 87.1 µM

// query Another: CC(CC(C#N)(c1ccccc1)c1ccccc1)N1CCCCC1 (stereo unspecified)
// result > 100 µM

// query Another: C1CCSCCCCSCCCCSCCCCSC1
// result > 100 µM

// query Another: C[n+]1c(-c2ccccc2)cc2/c(=C\c3ccc([N+](=O)[O-])cc3)c3ccccc3n21
// result > 36.1 µM

----------
# TGI per record follows
Tested on: UACC-257 melanoma
Assay Protocol: NCI tumour cell line growth inhibition, 48 h

Answered examples (3):
# Compound, TGI
rows = [
    ("CSC1CC2C(CC1(C)O)C2(C)C (centres undefined)", "> 100 µM"),
    ("O=C(c1ccc(F)cc1)c1cccc(C(=O)c2ccc(F)cc2)n1", "> 56.2 µM"),
    ("COCCN1C2=CCCCC2=Nc2c1nc(N)[nH]c2=O", "> 100 µM"),
]

// query Could you share which TGI value was measured for CCOC(=O)C1=C(C)N(Cc2ccccc2)C(C)=C(C(=O)OCC)C1c1ccccc1O ?
// result 70.7 µM

// query Another: CCN(Cc1ccc(F)c(F)c1)c1ccc(CO)c(Cl)c1
// result 0.432 µM

// query Another: COc1ccccc1NC(=O)C1=C(C)NC(C)=C(C(=O)Nc2ccccc2OC)C1c1ccccc1F
// result > 100 µM

// query Another: C=CCc1c2c(c(OC)c3ccoc13)C(=O)/C(=C/c1ccccc1OC)O2
// result > 100 µM

// query Another: CC1=NCCc2c1[nH]c1cc(O)ccc21
// result > 100 µM

// query Another: COC(=O)[C@]12CC[C@@H](C)[C@H](C)[C@@H]1C1=CC[C@@H]3[C@@]4(C)C[C@@H](OC(C)=O)[C@H](O)[C@@](C)(COC(C)=O)[C@@H]4[C@H](O)C[C@@]3(C)[C@]1(C)CC2
// result 5.92 µM

// query Another: CC(C)(C)C#CC1=C(Br)C(=O)OC1
// result 4.39 µM

// query Another: COC(=O)/C=C/C=C(c1ccccc1)c1ccccc1
// result > 100 µM

// query Another: CC(C)=CCc1c2c(c3occ(-c4ccc(O)c(O)c4)c(=O)c3c1O)C=CC(C)(C)O2
// result 4.89 µM

// query Another: c1ccc2c(c1)[nH]c1nc3cc(-c4ccc5nc6c(nc5c4)[nH]c4ccccc46)ccc3nc12
// result > 100 µM

// query Another: CNS(=O)(=O)NN(C)S(=O)(=O)c1ccc(F)cc1
// result > 100 µM
